Target: UniProt:P52333
Sequence (P52333 whole entry): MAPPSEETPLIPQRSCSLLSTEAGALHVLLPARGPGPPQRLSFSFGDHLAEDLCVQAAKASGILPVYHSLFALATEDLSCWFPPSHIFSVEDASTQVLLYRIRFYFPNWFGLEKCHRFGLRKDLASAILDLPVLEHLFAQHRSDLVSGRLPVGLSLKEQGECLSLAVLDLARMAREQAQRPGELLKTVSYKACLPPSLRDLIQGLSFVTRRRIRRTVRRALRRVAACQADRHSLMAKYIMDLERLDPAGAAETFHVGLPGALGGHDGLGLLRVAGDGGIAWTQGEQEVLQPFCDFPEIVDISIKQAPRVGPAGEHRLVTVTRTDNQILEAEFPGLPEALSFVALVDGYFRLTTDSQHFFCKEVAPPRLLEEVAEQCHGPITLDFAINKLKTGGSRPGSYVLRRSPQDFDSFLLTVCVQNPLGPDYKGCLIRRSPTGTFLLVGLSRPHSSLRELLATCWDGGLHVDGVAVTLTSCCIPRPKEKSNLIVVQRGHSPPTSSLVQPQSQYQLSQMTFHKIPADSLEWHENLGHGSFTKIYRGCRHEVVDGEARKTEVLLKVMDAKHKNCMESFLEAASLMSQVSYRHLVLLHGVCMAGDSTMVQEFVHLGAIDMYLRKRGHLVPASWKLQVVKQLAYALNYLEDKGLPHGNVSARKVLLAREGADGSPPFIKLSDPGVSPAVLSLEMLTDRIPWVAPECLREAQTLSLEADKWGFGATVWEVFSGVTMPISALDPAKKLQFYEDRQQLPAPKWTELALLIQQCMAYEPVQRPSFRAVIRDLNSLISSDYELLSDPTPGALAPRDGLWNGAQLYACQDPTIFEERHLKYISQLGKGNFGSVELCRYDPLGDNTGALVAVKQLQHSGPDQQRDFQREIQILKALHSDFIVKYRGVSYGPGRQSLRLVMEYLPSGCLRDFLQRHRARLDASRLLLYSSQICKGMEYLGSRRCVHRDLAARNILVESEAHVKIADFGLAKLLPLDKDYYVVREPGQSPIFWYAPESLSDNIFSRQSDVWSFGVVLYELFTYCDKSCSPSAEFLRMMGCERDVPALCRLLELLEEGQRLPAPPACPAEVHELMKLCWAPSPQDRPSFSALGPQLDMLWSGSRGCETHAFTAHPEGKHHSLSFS
Entries annotated with measured log10(IC50)
testReadout: log10(IC50) (log10 of the value in nM)

>>> measvalue("O=C1Nc2ccc(C(O)c3cccs3)cc2/C1=C/c1ccc[nH]1 (configuration not stated)")
2.28
>>> measvalue("O=C1Nc2ccc(C(=O)c3cccs3)cc2/C1=C/c1ccc[nH]1")
1.41
>>> measvalue("O=C1Nc2ccc(C(=O)c3cccnc3)cc2/C1=C/c1ccc[nH]1")
2.23
>>> measvalue("CC(=O)Nc1ccc(/C=C2\\C(=O)Nc3ccc(C(=O)c4cccs4)cc32)cc1")
2.85
>>> measvalue("O=C1Nc2ccc(C(=O)O)cc2/C1=C/c1ccc[nH]1")
2.33
>>> measvalue("O=C1Nc2ccc(-c3cccnc3)nc2/C1=C/c1ccc[nH]1")
2.37
>>> measvalue("O=C1Nc2ccc(C(=O)c3cccs3)cc2/C1=C/c1ccc(F)cc1")
3.69

----------
System: T-cell
Experiment: Inhibitory activity against IL-2 induced proliferation of human T-cells
Format: functional, cell-based
pIC50: −log10 of the molar value.
testReadout: pIC50

>>> measvalue("O=C1Nc2ccc(-c3cccnc3)nc2/C1=C/c1ccc[nH]1")
6.15
>>> measvalue("O=C1Nc2cnc(-c3cccnc3)cc2/C1=C/c1ccc[nH]1")
7.52
